Task for the reader: assign each of the following binders its reported Mean % WT Binding.
# system-under-test: human CD33 V282A (human, UniProt P20138 18-364)
# Sequence (P20138 18-364 V282A limits assumed): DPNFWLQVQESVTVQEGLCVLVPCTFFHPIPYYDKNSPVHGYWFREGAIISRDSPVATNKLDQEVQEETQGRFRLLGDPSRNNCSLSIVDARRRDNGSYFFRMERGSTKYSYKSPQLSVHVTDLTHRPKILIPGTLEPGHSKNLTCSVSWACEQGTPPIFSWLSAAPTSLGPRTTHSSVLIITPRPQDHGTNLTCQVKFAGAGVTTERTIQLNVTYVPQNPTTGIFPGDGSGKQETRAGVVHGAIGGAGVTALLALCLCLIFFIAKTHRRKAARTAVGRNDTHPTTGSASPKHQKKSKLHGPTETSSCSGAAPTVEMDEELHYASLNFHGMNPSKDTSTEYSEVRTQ
# assay-procedure: alanine scan, flow cytometry, HEK293-T;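 note: antibody binding to each alanine-substituted CD33 mutant expressed transiently in HEK293-T, read as fluorescence minus background, mean of duplicates, relative to wild-type CD33 set as 100%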
Give bare numbers, in % WT binding.

Recorded Mean % WT Binding, per entry:
Q. Recorded Mean % WT Binding for Refmab #1 (antibody, V domains shown, The alanine scan used IgG or Fab; also called hP67.6) VH: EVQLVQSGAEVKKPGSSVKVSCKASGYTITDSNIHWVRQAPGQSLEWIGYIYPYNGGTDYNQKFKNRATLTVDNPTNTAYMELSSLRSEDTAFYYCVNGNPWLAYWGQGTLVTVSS VL: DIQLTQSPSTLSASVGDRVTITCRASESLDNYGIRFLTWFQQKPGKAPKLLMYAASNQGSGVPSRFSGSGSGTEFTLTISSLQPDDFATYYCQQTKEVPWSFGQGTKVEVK , please?
A. 109

Q. Okay, and Refmab #4 (antibody, V domains shown, The alanine scan used IgG or Fab) VH: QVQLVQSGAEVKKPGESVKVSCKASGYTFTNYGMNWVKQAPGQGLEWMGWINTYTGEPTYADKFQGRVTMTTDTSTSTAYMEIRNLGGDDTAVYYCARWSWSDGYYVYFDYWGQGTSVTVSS VL: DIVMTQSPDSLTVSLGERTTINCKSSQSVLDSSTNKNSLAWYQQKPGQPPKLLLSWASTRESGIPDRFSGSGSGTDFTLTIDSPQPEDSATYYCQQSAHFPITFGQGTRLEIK ?
A. 111

Q. Okay, and Refmab #2 (antibody, V domains shown, The alanine scan used IgG or Fab) VH: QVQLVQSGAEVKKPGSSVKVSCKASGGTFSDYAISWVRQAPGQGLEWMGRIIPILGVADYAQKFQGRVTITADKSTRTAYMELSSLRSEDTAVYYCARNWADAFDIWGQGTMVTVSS VL: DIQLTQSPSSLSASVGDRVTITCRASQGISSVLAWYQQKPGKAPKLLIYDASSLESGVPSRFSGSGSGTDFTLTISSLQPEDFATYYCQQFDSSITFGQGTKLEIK ?
A. 112

More entries:
Q. Recorded Mean % WT Binding for Refmab #3 (antibody, V domains shown, The alanine scan used IgG or Fab) VH: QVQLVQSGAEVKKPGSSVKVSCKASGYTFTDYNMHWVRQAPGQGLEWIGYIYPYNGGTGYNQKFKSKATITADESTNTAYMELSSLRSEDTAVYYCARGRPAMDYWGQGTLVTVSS VL: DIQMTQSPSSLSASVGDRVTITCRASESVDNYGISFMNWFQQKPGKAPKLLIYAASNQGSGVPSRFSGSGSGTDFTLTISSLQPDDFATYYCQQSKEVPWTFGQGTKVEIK , please?
A. 73.2
